target: KRas Q61H (Homo sapiens, UniProt P01116, Q61H); test: KRas binding assay (TR-FRET displacement), KRas Q61H; conditions: TR-FRET displacement
Sequence (P01116 1-169 isoform P01116-2 Q61H): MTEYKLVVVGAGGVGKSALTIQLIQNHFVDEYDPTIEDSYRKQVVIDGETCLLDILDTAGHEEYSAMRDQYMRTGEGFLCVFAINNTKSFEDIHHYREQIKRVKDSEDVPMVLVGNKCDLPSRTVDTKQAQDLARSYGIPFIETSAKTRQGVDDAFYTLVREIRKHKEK
Here the recorded log10(IC50) is given for each entry.
metric_name: log10(IC50) (log10 of the value in nM)

{"columns": ["compound", "experimental_target", "measured_number"],
 "data": [
  ["CCc1cccc2cccc(N3CCc4c(nc(OCC5(CN(C)C)CC5)nc4NC4CC(n5ccnn5)C4)C3)c12 (stereo not drawn) [Example 703]", "KRas Q61H (Homo sapiens, UniProt P01116, Q61H)", 4.20],
  ["CCc1c(F)ccc2cccc(N3CCc4c(nc(OC[C@@]56CCCN5C[C@H](F)C6)nc4N4CCCn5nc(C(=O)N(C)C)cc5C4)C3)c12 [Example 481]", "KRas Q61H (Homo sapiens, UniProt P01116, Q61H)", 1.11],
  ["CCc1cccc2cccc(N3CCc4c(nc(OCC56CCCN5CCC6)nc4N4CCC(O)CC(S(C)(=O)=O)C4)C3)c12 (single isomer, unassigned) [Example 479]", "KRas Q61H (Homo sapiens, UniProt P01116, Q61H)", 1.62],
  ["CCc1cccc2cccc(N3CCc4c(nc(OCC5(CN(C)C)CC5)nc4NCc4nc(C5CC5)n[nH]4)C3)c12 [Example 675]", "KRas Q61H (Homo sapiens, UniProt P01116, Q61H)", 4.40],
  ["CCc1cccc2cccc(N3CCc4c(nc(OCC5(CN(C)C)CC5)nc4N4CCCn5nc(CO)cc5C4)C3)c12 [Example 694]", "KRas Q61H (Homo sapiens, UniProt P01116, Q61H)", 3.69],
  ["CCc1cccc2cccc(N3CCc4c(nc(OCC5(CN(C)C)CC5)nc4N4CCCC(n5ccc(C)n5)C4)C3)c12 (stereo not drawn) [Example 535]", "KRas Q61H (Homo sapiens, UniProt P01116, Q61H)", 3.81],
  ["CCc1cccc2cccc(N3CCc4c(nc(OCC5(CN(C)C)CC5)nc4N(C)Cc4nnc5c(=O)n(C)ccn45)C3)c12 [Example 700]", "KRas Q61H (Homo sapiens, UniProt P01116, Q61H)", 2.76],
  ["Cc1cc2[nH]ncc2c(N2CCc3c(nc(OCC45CCCN4CCC5)nc3N3CC4C(=O)NC(=O)C4C3)C2)c1C (stereo not drawn) [Example 458]", "KRas Q61H (Homo sapiens, UniProt P01116, Q61H)", 2.25],
  ["Oc1cc(Cl)c(C2CC2)c(N2CCc3c(nc(OCC45CCCN4CCC5)nc3N3CCC[C@]4(C3)C[C@@H](O)C4)C2)c1 [Example 441]", "KRas Q61H (Homo sapiens, UniProt P01116, Q61H)", 1.32],
  ["CCc1cccc2cccc(N3CCc4c(nc(OCC5(CN(C)C)CC5)nc4N4CCCOC(CCO)C4)C3)c12 (stereo not drawn) [Example 515]", "KRas Q61H (Homo sapiens, UniProt P01116, Q61H)", 2.94],
  ["Cc1cc2[nH]ncc2c(N2CCc3c(nc(OCC45CCCN4CCC5)nc3N3CCCC4(CNS(=O)(=O)N4)C3)C2)c1C (stereo not drawn) [Example 452]", "KRas Q61H (Homo sapiens, UniProt P01116, Q61H)", 0.85]
]}

* * *

IC50 values, listed per item
molecular target: KRas G12R (Homo sapiens, UniProt P01116, G12R); experiment: biochemical; settings: Binding to KRas (IC50 nM) G12R, TR-FRET displacement, KRas G12R
Sequence (P01116 1-169 isoform P01116-2 G12R): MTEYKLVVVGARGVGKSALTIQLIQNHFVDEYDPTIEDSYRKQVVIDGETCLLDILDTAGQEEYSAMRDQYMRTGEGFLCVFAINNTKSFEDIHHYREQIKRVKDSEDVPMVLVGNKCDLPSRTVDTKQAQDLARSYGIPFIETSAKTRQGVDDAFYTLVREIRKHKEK

{"columns": ["compound", "IC50"],
 "data": [
  ["CCc1c(F)ccc2cc(O)cc(N3CCc4c(nc(OC[C@@]56CCCN5C[C@H](F)C6)nc4N4CCCn5nc(C(=O)N6CC7CCC(C6)N7)cc5C4)C3)c12 [Example 265]", "< 2 nM"],
  ["CCc1c(F)ccc2cc(O)cc(N3CCc4c(nc(OC[C@@]56CCCN5C[C@H](F)C6)nc4N4CCCn5nc(C(=O)N(C6CC6)C6CC6)cc5C4)C3)c12 [Example 637]", "< 2 nM"],
  ["CCc1c(F)ccc2cc(O)cc(N3CCc4c(nc(OCC5(CN(C)C)CC5)nc4N4CCCC5(CCO5)C4)C3)c12 (stereo not shown) [Example 588]", "< 2 nM"],
  ["CCc1c(F)ccc2cc(O)cc(N3CCc4c(nc(OC[C@@]56CCCN5C[C@H](F)C6)nc4N4CCCn5nc6c(c5C4)CCCN(C)C6=O)C3)c12 [Example 409]", "< 2 nM"],
  ["CCc1c(F)ccc2cc(O)cc(N3CCc4c(nc(OC[C@@]56CCCN5C[C@H](F)C6)nc4N4CCCn5nc(C(=O)N6CC7(CCCN7)C6)cc5C4)C3)c12 [Example 277]", "< 2 nM"],
  ["CCc1c(F)ccc2cc(O)cc(N3CCc4c(nc(OC[C@@]56CCCN5C[C@H](F)C6)nc4N4CCCn5nc(C(=O)N6CC7CNC(CO)C7C6)cc5C4)C3)c12 (stereo partly shown) [Example 607]", "< 2 nM"],
  ["CCc1c(F)ccc2cc(O)cc(N3CCc4c(nc(OC[C@@]56CCCN5C[C@H](F)C6)nc4N4CCCn5nc(C(=O)N6CCC7(CCN7)C6)cc5C4)C3)c12 (stereo partly shown) [Example 278]", "< 2 nM"],
  ["CCc1c(F)ccc2cc(O)cc(N3CCc4c(nc(OC[C@@]56CCCN5C[C@H](F)C6)nc4N4CCCn5nc(C(=O)N6CCC7CC76)cc5C4)C3)c12 (stereo partly shown) [Example 344]", "< 2 nM"],
  ["CCc1c(F)ccc2cc(O)cc(N3CCc4c(nc(OC[C@@]56CCCN5C[C@H](F)C6)nc4N4CCCn5nc(C(=O)N(C)C)c(Br)c5C4)C3)c12 [Example 387]", "< 2 nM"],
  ["CCc1c(F)ccc2cc(O)cc(N3CCc4c(nc(OC[C@@]56CCCN5C[C@H](F)C6)nc4N4CCCOCC4)C3)c12 [Example 420]", "< 2 nM"],
  ["CCc1c(F)ccc2cc(O)cc(N3CCc4c(nc(OC[C@@]56CCCN5C[C@H](F)C6)nc4N4CCCC5(CC(=O)NC5=O)C4)C3)c12 (stereo partly shown) [Example 419]", "< 2 nM"],
  ["CCc1c(F)ccc2cc(O)cc(N3CCc4c(nc(OC[C@@]56CCCN5C[C@H](F)C6)nc4N4CCCc5nc(C(=O)N(C)C)sc5C4)C3)c12 [Example 304]", "3 nM"],
  ["CCc1c(F)ccc2cc(O)cc(N3CCc4c(nc(OCC5(CN(C)C)CC5)nc4N4CCCn5nncc5C4)C3)c12 [Example 430]", "< 2 nM"]
]}

* * *

molecular target: KRas G12V (Homo sapiens, UniProt P01116, G12V); assay: biochemical; conditions: Binding to KRas (IC50 nM) G12V, TR-FRET displacement, KRas G12V
Sequence (P01116 1-169 isoform P01116-2 G12V): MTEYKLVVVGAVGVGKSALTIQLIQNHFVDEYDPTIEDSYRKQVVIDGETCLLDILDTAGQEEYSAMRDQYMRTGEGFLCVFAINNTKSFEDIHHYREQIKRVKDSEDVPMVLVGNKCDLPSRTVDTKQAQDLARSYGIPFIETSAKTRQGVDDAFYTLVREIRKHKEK

{"columns": ["compound", "relation_symbol", "IC50 [nM]"],
 "data": [
  ["CCc1c(F)ccc2cc(O)cc(N3CCc4c(nc(OC[C@@]56CCCN5C[C@H](F)C6)nc4N4CCCCn5nc(C(=O)N(C)C6CC6)cc5C4)C3)c12", "<", 2],
  ["Oc1cc(Cl)c(C2CC2)c(N2CCc3c(nc(OCC45CCCN4CCC5)nc3N3CC4CC(O)C(C4)C3)C2)c1 (stereo not drawn)", "=", 38],
  ["CCc1c(F)ccc2cc(O)cc(N3CCc4c(nc(OC[C@@]56CCCN5C[C@H](F)C6)nc4N4CCCn5nc(C(=O)N6CC7(CCCN7)C6)cc5C4)C3)c12", "<", 2],
  ["O=C1NC(=O)[C@]2(CCCN(c3nc(OCC45CCCN4CCC5)nc4c3CCN(c3c(C5CC5)c(Cl)cc5[nH]ncc35)C4)C2)N1", "<", 2],
  ["CCc1cccc2cccc(N3CCc4c(nc(OCC5(CN(C)C)CC5)nc4N4CC(C)CC(CO)C4)C3)c12 (stereo not drawn)", "=", 1150],
  ["CCc1c(F)ccc2cc(O)cc(N3CCc4c(nc(OC[C@@]56CCCN5C[C@H](F)C6)nc4N4CCCC(O)(C(N)=O)C4)C3)c12 (stereo partly drawn)", "=", 5],
  ["CCc1c(F)ccc2cc(O)cc(N3CCc4c(nc(OC[C@@]56CCCN5C[C@H](F)C6)nc4NCC4CC(=O)NC4=O)C3)c12 (stereo partly drawn)", "=", 3],
  ["C=C1CN2CC(=C)CC2(COc2nc3c(c(N4C[C@@H]5C[C@H](C4)[C@H](O)C5)n2)CCN(c2cc(O)cc4ccc(F)c(CC)c24)C3)C1", "=", 2],
  ["CCc1c(F)ccc2cc(O)cc(N3CCc4c(nc(OCC5(CN(C)C)CC5)nc4N4CCOC(c5n[nH]c(CO)n5)C4)C3)c12 (stereo not drawn)", "=", 6],
  ["CCc1c(F)ccc2cc(O)cc(N3CCc4c(nc(OC[C@@]56CCCN5C[C@H](F)C6)nc4N4CCCn5nc(C(=O)N6CC7CN(C8COC8)CC7C6)cc5C4)C3)c12 (stereo partly drawn)", "<", 2],
  ["CCc1c(F)ccc2cc(O)cc(N3CCc4c(nc(OC[C@@]56CCCN5C[C@H](F)C6)nc4N4CCCn5nc(C(=O)N(C)C)c(OC)c5C4)C3)c12", "<", 2],
  ["CCc1cccc2cccc(N3CCc4c(nc(OCC5(CN(C)C)CC5)nc4N4Cc5cn[nH]c5CC(C)C4)C3)c12 (stereo not drawn)", "=", 3540],
  ["CCc1cccc2cccc(N3CCc4c(nc(OCC5(CN(C)C)CC5)nc4N4CCCC(c5ccon5)C4)C3)c12 (stereo not drawn)", "=", 3220],
  ["CCc1c(F)ccc2cc(O)cc(N3CCc4c(nc(OC[C@@]56CCCN5C[C@H](F)C6)nc4NCC4NC(=O)NC4=O)C3)c12 (stereo partly drawn)", "<", 2],
  ["CCc1c(F)ccc2cc(O)cc(N3CCc4c(nc(OC[C@@]56CCCN5C[C@H](F)C6)nc4N4Cc5cn(C(=O)N(C)C)nc5CC(C)C4)C3)c12 (stereo partly drawn)", "<", 2],
  ["C=C1CN2CC(=C)CC2(COc2nc3c(c(N4CCC[C@@](C)(O)C4)n2)CCN(c2cc(O)cc4ccc(F)c(CC)c24)C3)C1", "<", 2],
  ["CCc1c(F)ccc2cc(O)cc(N3CCc4c(nc(OC[C@@]56CCCN5C[C@H](F)C6)nc4N4CCCCn5nc(C(=O)N6CCOCC6)cc5C4)C3)c12", "<", 2],
  ["CCc1c(F)ccc2cc(O)cc(N3CCc4c(nc(OCC56CCCN5C/C(=C\\F)C6)nc4N4C[C@@H]5C[C@H](C4)[C@H](O)C5)C3)c12 (stereo partly drawn)", "<", 2]
]}
